# measurementTarget: T1, human PVRIG-his (AcroBiosystems, Cat NO. PVG-H52H4) (human, UniProt Q6DKI7 41-171, limits assumed)
# T1 construct: also called human PVRIG protein
# T1 sequence (looked up): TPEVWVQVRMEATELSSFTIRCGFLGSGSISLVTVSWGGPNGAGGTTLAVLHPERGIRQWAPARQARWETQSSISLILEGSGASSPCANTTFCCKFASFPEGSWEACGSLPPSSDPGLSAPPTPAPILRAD
# method: ELISA, antigen coated
recordedEndpoint: % relative activity parental antibody/tested antibody

PVRIG-A118-H6 (Fc fusion, humanized variant of PVRIG-A118; also called A118.VH6; not shown: constant part not restated for the humanized forms; parents are VHH-hinge-CH2-CH3 of human IgG1; detected by anti-human) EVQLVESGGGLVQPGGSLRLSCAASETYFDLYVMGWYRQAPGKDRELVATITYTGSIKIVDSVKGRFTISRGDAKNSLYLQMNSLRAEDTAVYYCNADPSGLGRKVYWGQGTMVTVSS ... 90.8%
PVRIG-A105-H3a (Fc fusion, humanized variant of PVRIG-A105; also called A105.VH3a; not shown: constant part not restated for the humanized forms; parents are VHH-hinge-CH2-CH3 of human IgG1; detected by anti-human) EVQLVESGGGLVQPGGSLRLSCAASGRTFDRHTMTWFRQAPGKEREFVATASRIPGDTYYVDSVKGRFTISRDNAKNSVYLQMNSLRAEDTAVYYCAATSAYSSEVDSYEKGSWYDNWGQGTMVTVSS ... 0.99%
PVRIG-A50-H1a (Fc fusion, humanized variant of PVRIG-A50; also called A50.VH1a; not shown: constant part not restated for the humanized forms; parents are VHH-hinge-CH2-CH3 of human IgG1; detected by anti-human) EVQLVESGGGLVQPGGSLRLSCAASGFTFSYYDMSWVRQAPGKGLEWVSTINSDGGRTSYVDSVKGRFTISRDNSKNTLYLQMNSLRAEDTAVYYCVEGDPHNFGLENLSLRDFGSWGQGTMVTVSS ... 92.4%
PVRIG-A50-H1e (Fc fusion, humanized variant of PVRIG-A50; also called VH1e; not shown: constant part not restated for the humanized forms; parents are VHH-hinge-CH2-CH3 of human IgG1; detected by anti-human) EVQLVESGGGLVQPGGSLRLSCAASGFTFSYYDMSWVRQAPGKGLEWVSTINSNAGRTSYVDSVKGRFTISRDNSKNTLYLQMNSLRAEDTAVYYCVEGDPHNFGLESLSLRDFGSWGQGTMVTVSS ... 116%
PVRIG-A50-H2a (Fc fusion, humanized variant of PVRIG-A50; also called A50.VH2a; not shown: constant part not restated for the humanized forms; parents are VHH-hinge-CH2-CH3 of human IgG1; detected by anti-human) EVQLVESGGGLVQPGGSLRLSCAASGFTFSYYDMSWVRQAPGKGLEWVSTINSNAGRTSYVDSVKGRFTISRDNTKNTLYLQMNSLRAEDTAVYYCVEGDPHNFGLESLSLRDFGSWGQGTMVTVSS ... 140%
PVRIG-A105-H4 (Fc fusion, humanized variant of PVRIG-A105; also called A105.VH4; not shown: constant part not restated for the humanized forms; parents are VHH-hinge-CH2-CH3 of human IgG1; detected by anti-human) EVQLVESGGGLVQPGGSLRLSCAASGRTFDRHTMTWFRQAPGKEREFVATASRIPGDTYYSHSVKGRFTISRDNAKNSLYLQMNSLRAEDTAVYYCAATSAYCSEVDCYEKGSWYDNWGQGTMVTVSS ... 140%
